# Experiment Description: Pharmacokinetic study in rats
# Assay type: in vivo, SD rats
# Run Conditions: male, SD, plasma, po; rat, intragastrically administered, 5 mg/kg; read-out: time at which the plasma concentration reached the peak value (Tmax)
Experimental Readout: Tmax (h)

{"Compound String": "N#Cc1cnc(NC(=O)N2CCCc3cc(CN4CCN5CCC[C@H]5C4=O)c(C=O)nc32)cc1NC1CC1", "Tmax [h]": 2.67}
{"Compound String": "N#Cc1cnc(NC(=O)N2CCCc3cc(CN4CCN5CCC[C@@H]5C4=O)c(C=O)nc32)cc1NC1CC1", "Tmax [h]": 2.5}

---

# Experiment Description: Pharmacokinetic study in rats
# Type: in vivo, SD rats
# Run Conditions: male, SD, plasma, po; rat, intragastrically administered, 5 mg/kg
# Procedure: Test Example 6: Pharmacokinetic Study of Compound of Formula B in Rats Assay drug: the compound of formula B obtained in Preparation Example 1. […] The compound of the formula B was accurately weighed out and formulated into different concentrations, and quantitative analysis was performed on a mass spectrometer to establish a standard curve. […]
Experimental Readout: Cmax (ng/mL)

a. N#Cc1cnc(NC(=O)N2CCCc3cc(CN4CCN5CCC[C@@H]5C4=O)c(C=O)nc32)cc1NC1CC1
b. N#Cc1cnc(NC(=O)N2CCCc3cc(CN4CCN5CCC[C@H]5C4=O)c(C=O)nc32)cc1NC1CC1
-- ask I'm curious, which of these has a smaller Cmax number: a or b ? Identify your pick by its label.
-- reply a

---

# Experiment Description: Pharmacokinetic study in rats
# Format: in vivo, SD rats
# Run Conditions: male, SD, plasma, iv; rat, intravenously injected, 2.0 mg/kg
Experimental Readout: clearance (mL/min/kg)

P. N#Cc1cnc(NC(=O)N2CCCc3cc(CN4CCN5CCC[C@@H]5C4=O)c(C=O)nc32)cc1NC1CC1
Q. N#Cc1cnc(NC(=O)N2CCCc3cc(CN4CCN5CCC[C@H]5C4=O)c(C=O)nc32)cc1NC1CC1
-- ask I'm curious, which of these has a smaller clearance number: P or Q ? Identify your pick by its label.
-- reply Q

---

# Experiment Description: Solubility test
# Format: physicochemical
# Run Conditions: SGF (simulated gastric fluid), 37 °C, pH 1.2, simulated gastric fluid, thermodynamic from solid, SGF (pH about 1.20), 200 rpm, read-out: SGF Solubility
Experimental Readout: solubility at 24 h

Notebook: N#Cc1cnc(NC(=O)N2CCCc3cc(CN4CCN5CCC[C@H]5C4=O)c(C=O)nc32)cc1NC1CC1 [Crystalline form I] , solubility at 24 h read as > 5000 µg/mL

---

# Experiment Description: Pharmacokinetic study in rats
# Format: in vivo, SD rats
# Run Conditions: male, SD, plasma, oral; rat, intragastric 5 mg/kg vs intravenous 2.0 mg/kg; read-out: absolute bioavailability
Experimental Readout: bioavailability (%)

{"Molecule": "N#Cc1cnc(NC(=O)N2CCCc3cc(CN4CCN5CCC[C@H]5C4=O)c(C=O)nc32)cc1NC1CC1 [compound of formula B]", "bioavailability (%)": 48.6}
{"Molecule": "N#Cc1cnc(NC(=O)N2CCCc3cc(CN4CCN5CCC[C@@H]5C4=O)c(C=O)nc32)cc1NC1CC1 [compound of formula C]", "bioavailability (%)": 35.3}

---

# Experiment Description: Pharmacokinetic study in rats
# Format: in vivo, SD rats
# Run Conditions: male, SD, plasma, iv; rat, intravenously injected, 2.0 mg/kg
Experimental Readout: half-life (h)

I. N#Cc1cnc(NC(=O)N2CCCc3cc(CN4CCN5CCC[C@H]5C4=O)c(C=O)nc32)cc1NC1CC1
II. N#Cc1cnc(NC(=O)N2CCCc3cc(CN4CCN5CCC[C@@H]5C4=O)c(C=O)nc32)cc1NC1CC1
-- ask For this pair, I and II , which shows a numerically higher half-life? Identify your pick by its label.
-- reply I
